Values were extracted from the supplement of paper PMC10065799.

molecular target: Hck (UniProt P08631); test: phosphorylation enrichment, bacterial display (enrichment ratio); higher = better substrate or ligand; peptides without Tyr show the background
Sequence (P08631 whole entry, looked up): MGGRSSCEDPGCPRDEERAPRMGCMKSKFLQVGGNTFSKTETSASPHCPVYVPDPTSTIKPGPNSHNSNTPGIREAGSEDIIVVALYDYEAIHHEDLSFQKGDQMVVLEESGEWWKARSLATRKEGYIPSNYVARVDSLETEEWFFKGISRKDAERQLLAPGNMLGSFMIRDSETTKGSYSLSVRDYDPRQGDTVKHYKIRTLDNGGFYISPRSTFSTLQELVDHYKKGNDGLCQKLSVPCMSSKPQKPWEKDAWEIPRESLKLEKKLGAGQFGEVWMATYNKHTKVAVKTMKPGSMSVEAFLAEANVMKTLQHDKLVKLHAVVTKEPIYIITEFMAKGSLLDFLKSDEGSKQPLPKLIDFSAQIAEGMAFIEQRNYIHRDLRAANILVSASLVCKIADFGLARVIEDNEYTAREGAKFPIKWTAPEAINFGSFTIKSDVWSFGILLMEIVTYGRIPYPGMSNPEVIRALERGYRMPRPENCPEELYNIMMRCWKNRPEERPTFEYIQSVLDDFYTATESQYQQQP
Give met when the value for phosphorylation enrichment is at least 0.5. Give not met when it is less.

Consider the following illustrative entries.
- macromolecule_sequence: "RQNQEYEILLD [KRT39_Y379]"
  assigned_class: "met"
- macromolecule_sequence: "KNSFKYYMSDD [ATRX_Y203_C200S]"
  assigned_class: "not met"
- macromolecule_sequence: "PFRQWYESHFA [RPS8_Y113_YF]"
  assigned_class: "met"
- macromolecule_sequence: "GNLLIYTEFGK [HGD_Y166]"
  assigned_class: "met"
- macromolecule_sequence: "WNDLDYVDSRR [GAA_Y407_M408V]"
  assigned_class: "met"

-- ask For this sequence, is measured phosphorylation enrichment 0.5 or higher? ANAYIYVVQLP [L1CAM_Y420]
-- reply met

-- ask Threshold query (phosphorylation enrichment >= 0.5) on TEAEPYYCSLR [NPHS1_Y1138_R1140C]
-- reply met

-- ask Determine whether measured phosphorylation enrichment meets or exceeds 0.5 for VHSGTYQVTVR [MYBPC3_Y1043]
-- reply met

-- ask Decide: is the reported value of phosphorylation enrichment for DLGIQYKALKP [CTNNA1_Y177] equal to or greater than 0.5?
-- reply not met

-- ask Does SGTFQYIIAKF [FOXL2_Y83_I80T_YF] have a reported phosphorylation enrichment of at least 0.5?
-- reply not met

---

# maps each entry to its phosphorylation enrichment
target: FGFR1 (UniProt P11362); experiment: phosphorylation enrichment, bacterial display (enrichment ratio); higher = better substrate or ligand; peptides without Tyr show the background
Sequence (P11362 whole entry, looked up): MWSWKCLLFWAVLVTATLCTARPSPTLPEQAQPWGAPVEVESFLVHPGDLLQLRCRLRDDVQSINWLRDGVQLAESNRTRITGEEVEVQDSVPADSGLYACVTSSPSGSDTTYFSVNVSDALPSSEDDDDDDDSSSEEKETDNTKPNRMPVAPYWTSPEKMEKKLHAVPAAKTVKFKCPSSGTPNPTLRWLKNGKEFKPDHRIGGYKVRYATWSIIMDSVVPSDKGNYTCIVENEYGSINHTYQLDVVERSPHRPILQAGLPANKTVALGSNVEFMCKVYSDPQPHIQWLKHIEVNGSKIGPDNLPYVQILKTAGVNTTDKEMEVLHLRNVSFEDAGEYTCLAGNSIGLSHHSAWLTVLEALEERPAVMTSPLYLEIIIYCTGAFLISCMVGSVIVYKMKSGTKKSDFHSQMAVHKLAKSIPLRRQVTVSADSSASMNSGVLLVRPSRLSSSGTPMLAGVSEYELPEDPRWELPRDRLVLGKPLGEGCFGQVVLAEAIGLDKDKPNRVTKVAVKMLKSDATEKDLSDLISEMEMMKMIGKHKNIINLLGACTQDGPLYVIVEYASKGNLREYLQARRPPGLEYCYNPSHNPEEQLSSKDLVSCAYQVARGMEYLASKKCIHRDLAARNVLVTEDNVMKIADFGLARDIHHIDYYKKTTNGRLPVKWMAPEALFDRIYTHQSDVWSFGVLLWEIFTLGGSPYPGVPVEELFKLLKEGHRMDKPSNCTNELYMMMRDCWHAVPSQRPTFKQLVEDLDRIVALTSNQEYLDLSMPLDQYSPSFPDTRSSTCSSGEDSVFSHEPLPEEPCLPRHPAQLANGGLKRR
Give the value as a plain number.

Recorded results for 3 sequences are shown here.
- macromolecule_sequence: "GGQVFHNSEYG [FLT4_Y1333_Y1333H]"
  phosphorylation enrichment: 0.386
- macromolecule_sequence: "SLESAYPEVSQ [TTF1_Y357_G360V]"
  phosphorylation enrichment: 0.507
- macromolecule_sequence: "FKDYFYCWNTS [AICDA_Y146_F151S]"
  phosphorylation enrichment: 11.2

-- ask Given the entry ESVNTYLQTSP [NAT1_Y208_M205V] , report its measured phosphorylation enrichment.
-- reply 0.386

-- ask Form field: reported phosphorylation enrichment of PFTRNYYVWAV [CYBA_Y87_R90W]
-- reply 9.92

-- ask Given AHAGEYGAGAL [HBA1_Y25_E28G] , state its recorded phosphorylation enrichment.
-- reply 0.365

-- ask # query: phosphorylation enrichment of entry AESPEYVHMFT [FAM111A_Y511_YF]
-- reply 1.69

-- ask Which phosphorylation enrichment value belongs to SPPEVYAIMRG [NTRK1_Y757_C752S] ?
-- reply 0.506

-- ask Given the entry FENGEYIIRQG [PRKG1_Y247_YF] , report its measured phosphorylation enrichment.
-- reply 0.499

-- ask Tell me the measured phosphorylation enrichment of EVESPYEVRDY [GIGYF2_Y1168_H1171R] , please.
-- reply 0.542

-- ask GET /values?readout=phosphorylation enrichment&item= GQSKGYRPKLY [SIPA1L3_Y1376]
-- reply 0.357

-- ask # phosphorylation enrichment lookup, item WSQAMYPDLGP [STARD8_Y330_R327Q]
-- reply 0.493

---

target: FGFR3 (UniProt P22607); assay: phosphorylation enrichment, bacterial display (enrichment ratio); higher = better substrate or ligand; peptides without Tyr show the background
Sequence (P22607 whole entry, looked up): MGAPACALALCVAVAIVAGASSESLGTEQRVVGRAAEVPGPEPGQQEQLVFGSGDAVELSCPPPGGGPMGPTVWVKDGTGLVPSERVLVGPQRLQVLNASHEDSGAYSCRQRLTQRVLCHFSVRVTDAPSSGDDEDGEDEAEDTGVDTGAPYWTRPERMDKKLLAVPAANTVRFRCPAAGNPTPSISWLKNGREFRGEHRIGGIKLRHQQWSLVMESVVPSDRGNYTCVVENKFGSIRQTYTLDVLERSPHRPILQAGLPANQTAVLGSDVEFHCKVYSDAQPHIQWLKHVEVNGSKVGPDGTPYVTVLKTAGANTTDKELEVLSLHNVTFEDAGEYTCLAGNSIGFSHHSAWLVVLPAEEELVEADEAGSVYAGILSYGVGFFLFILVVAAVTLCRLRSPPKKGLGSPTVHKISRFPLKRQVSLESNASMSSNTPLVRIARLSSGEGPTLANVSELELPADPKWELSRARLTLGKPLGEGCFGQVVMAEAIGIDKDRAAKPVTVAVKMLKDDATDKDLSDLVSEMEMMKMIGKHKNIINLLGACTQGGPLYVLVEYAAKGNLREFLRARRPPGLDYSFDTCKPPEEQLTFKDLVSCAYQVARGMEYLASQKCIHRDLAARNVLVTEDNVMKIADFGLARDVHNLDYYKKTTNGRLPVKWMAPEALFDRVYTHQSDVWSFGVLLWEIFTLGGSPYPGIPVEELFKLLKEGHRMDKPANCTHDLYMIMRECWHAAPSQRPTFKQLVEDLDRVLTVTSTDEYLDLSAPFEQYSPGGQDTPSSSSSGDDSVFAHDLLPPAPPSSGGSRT
Decision: phosphorylation enrichment >= 0.7 yields 1, all other cases yield 0.

Would you please look over these solved cases?
- macromolecule_sequence: "EEGRVYVFRLS [ITGAE_Y549_YF]"
  system_name: "FGFR3 (UniProt P22607)"
  assigned_class: 1
- macromolecule_sequence: "GQSKGYRPKLY [SIPA1L3_Y1376]"
  system_name: "FGFR3 (UniProt P22607)"
  assigned_class: 0
- macromolecule_sequence: "LDPIQYSKHPP [SQSTM1_Y433_T430P]"
  system_name: "FGFR3 (UniProt P22607)"
  assigned_class: 1
- macromolecule_sequence: "MKKMHYVDPDR [ST3GAL5_Y99_H104R]"
  system_name: "FGFR3 (UniProt P22607)"
  assigned_class: 0
- macromolecule_sequence: "GEEIKDMLWLS [OTC_Y55_Y55D]"
  system_name: "FGFR3 (UniProt P22607)"
  assigned_class: 0
- macromolecule_sequence: "DGTVHYVDEKG [IFT140_Y216]"
  system_name: "FGFR3 (UniProt P22607)"
  assigned_class: 1

-- ask Dear colleague, could you confirm whether LFCVHYFHRTF [SRD5A2_Y91] has phosphorylation enrichment at or above 0.7?
-- reply 1

-- ask Tell me whether phosphorylation enrichment is at least 0.7 here: KVKVEYDMTVP [AHNAK_Y964_G962V]
-- reply 0

---

target: Fes (UniProt P07332); assay: phosphorylation enrichment, bacterial display (enrichment ratio); higher = better substrate or ligand; peptides without Tyr show the background
Sequence (P07332 whole entry, looked up): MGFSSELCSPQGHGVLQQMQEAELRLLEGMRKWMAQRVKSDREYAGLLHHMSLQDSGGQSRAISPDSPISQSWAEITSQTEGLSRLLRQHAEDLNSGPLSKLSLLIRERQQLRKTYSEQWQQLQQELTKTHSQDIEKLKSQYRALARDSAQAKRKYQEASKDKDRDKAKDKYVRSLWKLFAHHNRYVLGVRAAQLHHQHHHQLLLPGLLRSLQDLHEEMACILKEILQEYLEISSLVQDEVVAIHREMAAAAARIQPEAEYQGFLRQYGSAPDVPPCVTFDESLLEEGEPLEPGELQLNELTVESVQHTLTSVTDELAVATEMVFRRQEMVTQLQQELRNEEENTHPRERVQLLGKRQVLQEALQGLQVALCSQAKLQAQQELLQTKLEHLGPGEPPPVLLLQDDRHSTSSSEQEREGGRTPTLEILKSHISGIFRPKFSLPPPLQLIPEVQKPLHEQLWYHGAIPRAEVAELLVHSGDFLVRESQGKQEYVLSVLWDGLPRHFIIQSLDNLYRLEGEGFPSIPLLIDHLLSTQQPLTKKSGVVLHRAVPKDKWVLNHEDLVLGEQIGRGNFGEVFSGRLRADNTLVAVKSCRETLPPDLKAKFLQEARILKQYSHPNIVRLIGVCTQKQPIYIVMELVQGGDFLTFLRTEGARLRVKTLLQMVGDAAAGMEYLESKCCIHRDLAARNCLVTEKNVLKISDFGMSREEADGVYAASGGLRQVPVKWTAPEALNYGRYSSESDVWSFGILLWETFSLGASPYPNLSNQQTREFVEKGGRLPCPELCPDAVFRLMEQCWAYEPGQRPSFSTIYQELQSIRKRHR
readout: phosphorylation enrichment
Give a plain numeric answer without units written out.

- macromolecule_sequence: "FHKALYTVRSY [PDE6C_Y266]"
  val: 0.919
- macromolecule_sequence: "TDTAAYEERLR [SPTB_Y474_V478L]"
  val: 0.914
- macromolecule_sequence: "RRIHSYRGYLW [VHL_Y112_H115Y]"
  val: 0.905
- macromolecule_sequence: "MQMEEYRGRVE [BTNL2_Y91_W94R]"
  val: 0.874

Here is the next item to consider.
-- ask phosphorylation enrichment lookup needed for DRLASYLDKMR [KRT17_Y98_V102M] , thanks.
-- reply 0.912

---

target: Grb2 SH2 (UniProt P62993); experiment: SH2 binding enrichment of the phosphorylated peptide, bacterial display (enrichment ratio); higher = better substrate or ligand; peptides without Tyr show the background
Sequence (P62993 whole entry, looked up): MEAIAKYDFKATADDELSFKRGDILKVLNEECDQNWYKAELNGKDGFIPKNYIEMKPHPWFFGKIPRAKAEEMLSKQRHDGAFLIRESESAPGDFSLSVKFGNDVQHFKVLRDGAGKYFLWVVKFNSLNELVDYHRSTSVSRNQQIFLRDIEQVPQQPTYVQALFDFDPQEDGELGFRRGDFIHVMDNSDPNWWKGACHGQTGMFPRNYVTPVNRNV
If the reported SH2 binding enrichment equals or exceeds 0.8, assign 1.0. If not, assign 0.0.

- macromolecule_sequence: "RNLLIYTEFGK [HGD_Y166_G161R]"
  assigned_class: 1.0

-- ask Answer whether SH2 binding enrichment of LTSKPYAFTAW [NDUFS1_Y236_R241W] is greater than or equal to 0.8.
-- reply 1.0

-- ask Quick check: does QRDSSYFWEIE [RAF1_Y340_YF] have SH2 binding enrichment greater than or equal to 0.8?
-- reply 1.0

-- ask Decide: is the reported value of SH2 binding enrichment for PVKAAYQKVVA [HBB_Y131_Q128K] equal to or greater than 0.8?
-- reply 1.0

-- ask API: above_or_equal(metric=SH2 binding enrichment, cutoff=0.8) for item LLIVEYAKYGS [RET_Y806]
-- reply 1.0

-- ask Textbook exercise: given the entry NVADHYGVFKP [ATP6V0D2_Y271_YF] , state whether its SH2 binding enrichment is greater than or equal to 0.8.
-- reply 1.0

-- ask Is SH2 binding enrichment for EFGFRYELVQY [UGGT2_Y1289_Y1285F] at or above 0.8?
-- reply 0.0

-- ask Is it the case that DAVCFYRMENA [NPHS2_Y195_I192V_YF] has SH2 binding enrichment reaching or exceeding 0.8?
-- reply 0.0

-- ask Hi, just wondering whether ASKEPYYVHCI [MYO1D_Y585_R588H] shows SH2 binding enrichment of 0.8 or higher.
-- reply 1.0

---

Entries and their measured phosphorylation enrichment follow.
tested on: c-Src; experiment: phosphorylation enrichment, bacterial display (enrichment ratio); higher = better substrate or ligand; peptides without Tyr show the background
The answer should be written as a number, with no unit following it.

Some solved entries appear below for comparison.
- macromolecule_sequence: "VVPGSYDRLRV [IFT172_Y260_L257P]"
  phosphorylation enrichment: 0.399
- macromolecule_sequence: "RSPLRYISILT [OR51B6_Y130_T131I]"
  phosphorylation enrichment: 0.322
- macromolecule_sequence: "TTPGPYRSIFF [MPG_Y71_YF]"
  phosphorylation enrichment: 0.728
- macromolecule_sequence: "GDFFCYLAEVA [YWHAG_Y133_R132C_YF]"
  phosphorylation enrichment: 0.484
- macromolecule_sequence: "AHAGEYGVEAL [HBA1_Y25_A27V]"
  phosphorylation enrichment: 0.402

Then this sequence:
-- ask For PYAEPYADYGG [APBA1_Y187_S184A] , what is its reported phosphorylation enrichment?
-- reply 5.47

---

biological target: FGFR3 (UniProt P22607); assay: phosphorylation enrichment, bacterial display (enrichment ratio); higher = better substrate or ligand; peptides without Tyr show the background
Lab note: compare phosphorylation enrichment against 0.7. Equal or greater, write yes (1). Smaller, write no (0).

Look over these answered cases.
- macromolecule_sequence: "SSENPCATIKD [MEGF10_Y1030_Y1030C]"
  system_name: "FGFR3 (UniProt P22607)"
  assigned_class: "no (0)"
- macromolecule_sequence: "QNTGDYFDLFG [PTPN11_Y62_YF]"
  system_name: "FGFR3 (UniProt P22607)"
  assigned_class: "yes (1)"
- macromolecule_sequence: "SVVVPCEPPEV [TP53_Y220_Y220C]"
  system_name: "FGFR3 (UniProt P22607)"
  assigned_class: "no (0)"
- macromolecule_sequence: "FTYDPYSEEEP [IL2RB_Y387_D391E]"
  system_name: "FGFR3 (UniProt P22607)"
  assigned_class: "yes (1)"
- macromolecule_sequence: "PYAEPYADYGG [APBA1_Y187_S184A]"
  system_name: "FGFR3 (UniProt P22607)"
  assigned_class: "yes (1)"

-- ask Exam item: decide whether the reported phosphorylation enrichment for SKAFAYVHFDS [PABPC5_Y149_G146A_YF] is at least 0.7.
-- reply yes (1)

-- ask Exam item: decide whether the reported phosphorylation enrichment for RKNAKYLLKGE [CDH5_Y82] is at least 0.7.
-- reply no (0)
